# Test Protocol: inhibitors of Toxoplasma growth in IFN-γ-primed HeLa – cell-based, ME49Luc, luciferase, 72 h, dose response (AID 1259418)
# Particulars: T. gondii ME49Luc in IFN-y HeLa, active compounds read low, -100% = high-dose IFN-γ control wells; at 19.5 µM unless noted
The campaign covered roughly 3,400 compounds. About 840 (25%) were called active. Not shown: some 11% with an inconclusive outcome. Not all results are given here. Measured potencies and affinities stand elsewhere.
Readout Kind: max activity

Compound: COc1ccc(Nc2nc(-c3ccc(OC)cc3)nc3ccccc23)cc1
max activity: 12.9% (inactive)
--
Compound: O=C(COc1ccc(Cl)cc1)N1CCC2(CC1)Nc1ccc(Cl)cc1-n1cccc12
max activity: 3.74% [at 0.68 µM] (inactive)
--
Compound: O=C(COc1ccc(Cl)cc1)N1CCC2(CC1)Nc1cc(F)ccc1-n1cccc12
max activity: 9.43% [at 0.16 µM] (inactive)

Answer with the recorded max activity of O=C(COc1ccccc1)N1CCC2(CC1)Nc1ccc(Cl)cc1-n1cccc12 only.
8.01% [at 0.35 µM] (inactive)

Given the compound CCOc1ccc(-c2nc(CN3CCN(C(=O)Nc4ccccc4C(=O)OC)CC3)c(C)o2)cc1 , write its reported max activity.
6.24% [at 0.16 µM] (inactive)

Respond only with max activity recorded for Cc1ccc(C)c(-c2coc(-c3ccc(NC(=O)C(C)(C)C)cc3)n2)c1
13.3% [at 0.16 µM] (inactive)

Provide max activity value for the following compound: COc1ccc(-c2nc(Nc3ccccc3)c3ccccc3n2)cc1
6.36% [at 10 µM] (inactive)

Look up max activity of CCc1ccc(Nc2nc(-c3ccc(OC)cc3)nc3ccccc23)cc1 and report it.
-16.2% [at 0.35 µM] (inactive)

For the compound Cc1ccc(C(=O)Nc2c(C(=O)N3CCCC3)[nH]c3ccccc23)cc1 , give its measured max activity value.
14.8% [at 2.6 µM] (inactive)

Specify reported max activity for the compound shown: CCOC(=O)C1CCCN(S(=O)(=O)c2cc(-c3nc(C)c(C)s3)sc2C)C1 (stereo not given)
14.9% [at 0.16 µM] (inactive)

----------
# Test Protocol: inhibitors of Toxoplasma growth in IFN-γ-primed HeLa – cell-based, ME49Luc, luciferase, 72 h, dose response (AID 1259418)
# Particulars: T. gondii ME49Luc in IFN-y HeLa, active compounds read low, -100% = high-dose IFN-γ control wells; at 19.5 µM unless noted
Out of some 3,400 compounds screened, about 840 (25%) were called active. Another 11% or so got no clear call; they are omitted. The list is a sample of the results. Entries with a potency or affinity are not part of this list.
Readout Kind: max activity

Output measured max activity for this item: O=S(=O)(c1ccccc1)N1CCCCN2[C@H](C1)[C@H](c1ccc(C#CC3CCCC3)cc1)[C@@H]2CO
27.4% [at 5 µM] (inactive)

Identify measured max activity corresponding to C/C=C/c1ccc(C2[C@H]3CNC[C@@H]2N3S(=O)(=O)c2cccc(F)c2)cc1 (stereo not given in full)
51.2% (inactive)

Please report max activity for the following molecule: COc1cccc(S(=O)(=O)N2CCCCN3[C@H](CO)[C@@H](c4ccc(C#CCC(C)C)cc4)[C@@H]3C2)c1
106% (inactive)

Report measured max activity; entry is CCc1nc(OCC(=O)Nc2cccc(SC)c2)c2ccccc2n1
9.62% [at 0.16 µM] (inactive)

Please indicate max activity recorded for Cc1nc(N2CCCC2)nc2c1CCN(S(=O)(=O)c1ccccc1)CC2
10.7% [at 10 µM] (inactive)

Where these numbers come from: PubChem BioAssay AID1259418
